EXPERIMENTAL_TARGET: protein-tyrosine phosphatase SHP1 (UniProt P29350)
ASSAY: fluorescence anisotropy, FITC-labeled ZIZIT-cisPro 100 nM
Starred links: 1 amine or outer side, 2 acyl side, 3 side chain; linkers in the order of their positions; H or OH if unused. Non-standard residues stand in square brackets, D forms with d. *: point of attachment. Cys(ΨMe,MePro) = 2,2-dimethyl-L-thiazolidine-4-carboxylic acid, cis-proline analog, CC1(C)SC[C@@H](C(=O)[*:2])N1[*:1]; F∗ = N-terminal 5(6)-SFX fluorescein label; Tle = CC(C)(C)[C@H](N)C(=O)O; NHPr = CCCN*
OBSERVATION_TYPE: Kd

Query block: Field request: Kd | item: {F∗}-GPHP[Tle]I[Tle]ITG[Cys(ΨMe,MePro)]HEEG-NHPr (also called FITC-labeled ZIZIT-cisPro) [F*-GPHPZIZITG-Cys(Ψ^Me,MePro)-HEEG-Propyl (F*-ZIZIT-cis), fluorescein-labeled ZIZIT-cisPro]
Result block: > 15 µM
